Test system: ACHN renal
Experiment: NCI tumour cell line growth inhibition, 48 h
OUTCOME_MEASURE: TGI (µM)
Report as a plain number; the unit µM is understood.

• COc1ccc(N2C(=O)C3ON(Cc4ccc(CC(N)=O)cc4)C(c4c5ccccc5c(C)c5ccccc45)C3C2=O)cc1 (stereo not given) = 77.9

What does the data say about its TGI? Entry: CC(=O)C1=C(C)N(c2ccccc2)C2(O)C3=C(C(=O)c4ccccc4C3=O)C(O)=CC12Cl (stereo not given)
33.2

---

System: SNB-75 CNS
Assay: NCI tumour cell line growth inhibition, 48 h
OUTCOME_MEASURE: TGI

Here's what some known entries look like.
* CCN(Cc1ccc(Cl)c(Cl)c1)c1ccc2nc(N)nc(N)c2c1C | 2.01 µM
* CCC1(CC)C(=O)NC(=O)NC1=S | > 100 µM
* S=C1SCC2CCCN12 (stereo unspecified) | > 100 µM
* OCc1c(-c2cccs2)oc(-c2cccs2)c1CO | > 100 µM

Please look up its TGI: COc1ccc(C2=Nn3c(nnc3-c3ccc(F)c(Cl)c3)SC2)cc1
> 100 µM

Request: CCOP(=O)(OCC)C(c1ccc(F)cc1)N(C(=O)NC(F)(F)F)c1ccc(F)cc1 (stereo unspecified)
> 100 µM

---

Test system: SK-MEL-28 melanoma
Test: NCI tumour cell line growth inhibition, 48 h
OUTCOME_MEASURE: TGI

Recorded TGI, per entry:
• N=C1OC(CN2CCN(c3ccccc3)CC2)CN1C(=O)Nc1ccccc1 (stereo unspecified) = > 100 µM
• CC1=C(C)C(=O)OC(C(C)(O)C2(O)CC3OC34C3CC(O)C56OC5C=CC(=O)C6(C)C3CCC42C)C1 (stereo unspecified) = 4.24 µM
• O=[N+]([O-])c1ccc2c(c1)nc1n2C(c2c(F)cccc2F)SC1 (stereo unspecified) = > 100 µM
• CCCCC[C@@H]1CCCC2NC(CCCCCO[Si](c3ccccc3)(c3ccccc3)C(C)(C)C)CCC21 (stereo partly specified) = 32.2 µM
• O=CNC(Cc1cnc[nH]1)C(=O)O (stereo unspecified) = > 100 µM
• CC(=O)CC[N+](C)(C)C = 50 µM

Please report the recorded TGI for CCc1cn2c(/C=N/N=C(N)N)c(-c3cc(C)c(Cl)cc3Cl)nc2s1 .
2.82 µM

Same question, O=NNc1ccc(-c2ccccc2)cn1 this time
> 80.1 µM

How about COC(=O)[C@@]12CSC[C@]1(C(=O)OC)N[C@@H](c1ccccc1O)C2 ?
> 100 µM

Proceed to COc1ccc(SCc2cc(OC)ccc2OC)cc1
> 100 µM

Similarly, O=C(O)CCC(O)=C1S(=O)(=O)OCCOS1(=O)=O ?
> 100 µM

---

Tested on: OVCAR-3 ovarian
Assay: NCI tumour cell line growth inhibition, 48 h
OUTCOME_MEASURE: TGI

Would you please look over these solved cases?
- CC(=O)C1=C(C)N(c2ccccc2)C2(O)C3=C(C(=O)c4ccccc4C3=O)C(O)=CC12Cl (stereo not drawn): > 100 µM
- O=C1OC(c2ccc([N+](=O)[O-])cc2)=N/C1=C\c1ccc(Cl)cc1: > 100 µM
- Cn1cc(-c2ccc3c4ccccc4n(C)c3c2)c2ccccc21: > 100 µM
- CCC1c2[nH]c3ccccc3c2C[C@H]2C(=O)NC(C)C(=O)N12 (stereo partly drawn): > 100 µM
- O=C(n1c2ccccc2c2n[nH]c(=S)nc21)C(F)(F)F: > 100 µM

I have this molecule here, CCOC(=O)/C(C(N)=O)=C(\O)C(=O)/C=C(\O)c1ccc(Cl)cc1 , and I need its recorded TGI.
66.4 µM

Proceed to CC(=O)/C=C1\CC(=O)N(C)c2ccccc2N1
> 100 µM

Now this one: CN(C)CCNC(=O)c1ccc2c(c1)oc1cc3ccccc3c(=O)n12
30.4 µM

Reference source: PubChem BioAssay (NCI)
